# measured on: T1, PUF4 RNA-binding domain (Saccharomyces cerevisiae, UniProt P25339 537-888)
# T1 sequence: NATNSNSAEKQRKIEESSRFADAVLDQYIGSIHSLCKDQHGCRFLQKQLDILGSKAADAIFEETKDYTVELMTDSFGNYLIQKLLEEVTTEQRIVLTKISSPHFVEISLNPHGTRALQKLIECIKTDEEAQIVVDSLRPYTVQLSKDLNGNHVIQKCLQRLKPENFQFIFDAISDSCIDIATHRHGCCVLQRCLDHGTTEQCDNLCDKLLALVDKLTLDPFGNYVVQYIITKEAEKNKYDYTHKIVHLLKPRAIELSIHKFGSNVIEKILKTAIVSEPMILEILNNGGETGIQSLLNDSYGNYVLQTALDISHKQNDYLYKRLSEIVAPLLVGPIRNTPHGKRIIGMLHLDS
# protocol: Mg; RNA-MaP; 20 mM Na-HEPES pH 7.4, 30 mM KOAc, 0.75 mM MgCl2, 0.1% Tween-20, 5% glycerol, 0.1 mg/mL BSA, 2 mM DTT; 25 C; 0.0125-409.6 nM protein
# stated conditions: tags: N-His6-TEV cleaved; C-SNAP kept, Cy3B-labelled; label: tethered on chip by stalled RNA polymerase
Kindly state Kd for each of the entries shown.

* Id_ii_S4_P5E.4_K5.3_C5.2_[C-2T]_[T-1C]_H5.3_A5.1_F5.1_T5.2_[A12T] (ssRNA) RNA: UUUGACAACUGAUCGUUCUUUCUUCACACUUAUUAUUUUCUUUCUCGAUCAGUUGUCUUU | > 2.3 µM

# per-item lookup of Kd; items listed below
1. Id_ii_S2_P4E.4_K4.3_C4.2_H4.3_A4.1_F4.1_T4.2 (ssRNA) RNA: UUUGAUUAAUAUGAUAUCGUUCUUUCUCUACACUAUUAGUUUCUUUCUCGAUAUCAUAUUAAUCUUU
2. UCUCUUUGUAUUCGUAUCUCUU (ssRNA) [Ib_S1_P5E.1_K5.1_C5.1_H5.1_A5.1_[A7C]_F5.1_[T8G]_T5.1]
3. UCUCUUUGUACUGCUCUCUU (ssRNA) [Ic_S1_P3E.1_K3.1_C3.1_H3.1_A3.1_[T5C]_[A6T]_F3.1_[T7G]_[A8C]_T3.1]

1. > 2.3 µM
2. 0.0191 µM
3. 0.842 µM

State the recorded Kd for every item in the following list.
1. Ie_S2_P3E.2_K3.1_C3.2_H3.1_[+2CC]_A3.1_F3.1_T3.2 (ssRNA) RNA: UUUGAUUAAUAUGAUAUCGUUCUUUCUCUUGCCUAUAUAUAUUCUUUCUCGAUAUCAUAUUAAUCUUU
2. Ie_S2_P4E.1_K4.1_C4.1_H4.1_[+2TCTCT]_A4.1_F4.1_T4.1 (ssRNA) RNA: UUUGAUUAAUAUGAUAUCGUUCUUUCUUGUCUCUUAUAUUAUUCUUUCUCGAUAUCAUAUUAAUCUUU
3. Ie_S4_P3E.2_K3.1_C3.2_[+-2T]_H3.1_A3.1_F3.1_T3.2 (ssRNA) RNA: UUUGACAACUGAUCGUUCUUUCUCUUUGUAUAUAUAUUCUUUCUCGAUCAGUUGUCUUU
4. Id_ii_S2_P3E.4_K3.3_C3.2_[C-2T]_[T-1C]_H3.3_A3.1_F3.1_T3.2_[T9A]_[A10G] (ssRNA) RNA: UUUGAUUAAUAUGAUAUCGUUCUUUCUUCACACUAUAAGUUCUUUCUCGAUAUCAUAUUAAUCUUU
5. UCUCUUCCACACUAUUAUAUCUCUU (ssRNA) [Id_ii_S1_P4E.4_K4.3_C4.2_[T-1C]_H4.3_A4.1_F4.1_T4.2_[G10T]_[T11A]]
6. Id_ii_S2_P5E.2_K5.1_C5.2_[T-1A]_H5.1_A5.1_F5.1_T5.2_[A12C] (ssRNA) RNA: UUUGAUUAAUAUGAUAUCGUUCUUUCUCAUGUAUUAUUAUCUUCUUUCUCGAUAUCAUAUUAAUCUUU
7. Id_ii_S2_P5E.3_K5.2_C5.2_[C-2T]_[T-1C]_H5.2_A5.1_F5.1_T5.2_[T11A] (ssRNA) RNA: UUUGAUUAAUAUGAUAUCGUUCUUUCUUCUAUAUUAUUAAAUUCUUUCUCGAUAUCAUAUUAAUCUUU
8. UCUCUUUUUGUAUUAUUAACUCUCUU (ssRNA) [Id_ii_S1_P5E.2_K5.1_C5.2_[C-2T]_H5.1_A5.1_F5.1_T5.2_[T11A]_[A12C]]

1: 0.102 µM; 2: 0.0265 µM; 3: 0.000987 µM; 4: > 2.3 µM; 5: > 2.3 µM; 6: 0.00297 µM; 7: 0.22 µM; 8: 0.00808 µM

Cited source: paper PMC9352680
